# Lookup of reported DC50 keyed by entry
Assay Target: Androgen Receptor (AR) (Homo sapiens, UniProt P10275, T878A)
Construct: cell based immuno-fluorescence assay using the LNCaP prostate epithelial cell line; endogenous in cells; host or cells: LNCaP clone FGC (ATCC CRL-1740)
Sequence (P10275 whole entry T878A): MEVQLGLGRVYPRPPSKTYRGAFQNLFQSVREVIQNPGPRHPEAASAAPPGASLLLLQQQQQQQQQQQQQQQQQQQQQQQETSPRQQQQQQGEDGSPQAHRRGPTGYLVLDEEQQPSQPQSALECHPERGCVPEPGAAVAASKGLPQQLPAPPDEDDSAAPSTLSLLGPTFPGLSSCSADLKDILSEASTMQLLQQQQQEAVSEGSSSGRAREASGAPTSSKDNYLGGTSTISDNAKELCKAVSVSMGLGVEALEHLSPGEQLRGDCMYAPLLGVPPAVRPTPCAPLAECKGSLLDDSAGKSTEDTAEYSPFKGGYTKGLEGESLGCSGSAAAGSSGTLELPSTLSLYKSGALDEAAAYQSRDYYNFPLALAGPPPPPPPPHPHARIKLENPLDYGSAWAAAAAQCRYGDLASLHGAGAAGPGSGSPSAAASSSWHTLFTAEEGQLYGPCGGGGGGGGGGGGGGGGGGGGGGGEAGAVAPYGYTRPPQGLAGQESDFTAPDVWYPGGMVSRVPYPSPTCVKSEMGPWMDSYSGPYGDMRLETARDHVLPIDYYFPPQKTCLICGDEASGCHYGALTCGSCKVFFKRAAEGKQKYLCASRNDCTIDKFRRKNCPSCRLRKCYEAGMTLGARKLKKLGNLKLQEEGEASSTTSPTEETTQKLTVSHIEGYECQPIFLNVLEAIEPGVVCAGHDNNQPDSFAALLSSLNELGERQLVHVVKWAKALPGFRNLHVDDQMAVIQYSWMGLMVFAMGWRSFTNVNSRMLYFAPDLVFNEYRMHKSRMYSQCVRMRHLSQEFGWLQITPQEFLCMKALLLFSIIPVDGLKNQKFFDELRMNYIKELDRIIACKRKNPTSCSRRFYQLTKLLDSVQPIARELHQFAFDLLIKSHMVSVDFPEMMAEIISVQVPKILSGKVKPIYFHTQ
Assay Procedure: LNCaP Androgen Receptor Down-regulation Cell Assay (immunofluorescence end point)
Assay type: cell-based
Measurement Conditions: LNCaP prostate carcinoma cells, compound incubation 20-22 hours, 50% reduction of the AR signal; read-out: Androgen Receptor Down-regulation Assay (a) IC50/μM
Expressed in µM, but write only the number.

> print(dat)
                                   compound  reported.value
1  CS(=O)(=O)Nc1cccc(CN2CCN(c3ccc4nnc(C(F)(F)F)n4n3)CC2)c1 [Example 150]             7.6
2  FC(F)(Cl)c1nnc2ccc(N3CCCC(c4ccccc4)CC3)nn12 (stereo not drawn) [Example 355]            0.72
3  Nc1ccc(CN2CCN(c3ccc4nnc(C(F)(F)F)n4n3)CC2)cc1 [Example 212]             3.7
4  COc1cccc(S(=O)(=O)N2CC3CN(c4ccc5nnc(C(F)(F)F)n5n4)CC3C2)c1 (stereo not drawn) [Example 454]             9.2

Please look at the following compound next.
INPUT: Tell me measured DC50 for OC1(c2ccccc2F)CCN(c2ccc3nnc(C(F)(F)F)n3n2)CC1 [Example 549] please.
OUTPUT: 1.6
